Hi there, I'd appreciate the recorded viability at 48 h, 50 μg/mL for every entry that follows.
assay: Cytotoxicity by MTT assay; type: cell-based, human; conditions: human, HEK293 cells

1) Cc1ccc(C(C)C)cc1OCc1cn(-c2ccc(C(=O)O)cc2)nn1
> 75%

Moving on to the next compound.
// query Name the reported viability at 48 h, 50 μg/mL value associated with the compound O=C(O)c1ccc(-n2cc(COC3=CC(=O)c4ccccc4C3=O)nn2)cc1
// result > 75%
